Attribution: paper PMC4336329

molecular target: human ether-à-go-go-related gene (hERG) potassium channel (human, UniProt Q12809); experiment: primary screen, population patch clamp on CHO cells stably expressing hERG; higher = less effect of the substance
Sequence (Q12809 whole entry, looked up): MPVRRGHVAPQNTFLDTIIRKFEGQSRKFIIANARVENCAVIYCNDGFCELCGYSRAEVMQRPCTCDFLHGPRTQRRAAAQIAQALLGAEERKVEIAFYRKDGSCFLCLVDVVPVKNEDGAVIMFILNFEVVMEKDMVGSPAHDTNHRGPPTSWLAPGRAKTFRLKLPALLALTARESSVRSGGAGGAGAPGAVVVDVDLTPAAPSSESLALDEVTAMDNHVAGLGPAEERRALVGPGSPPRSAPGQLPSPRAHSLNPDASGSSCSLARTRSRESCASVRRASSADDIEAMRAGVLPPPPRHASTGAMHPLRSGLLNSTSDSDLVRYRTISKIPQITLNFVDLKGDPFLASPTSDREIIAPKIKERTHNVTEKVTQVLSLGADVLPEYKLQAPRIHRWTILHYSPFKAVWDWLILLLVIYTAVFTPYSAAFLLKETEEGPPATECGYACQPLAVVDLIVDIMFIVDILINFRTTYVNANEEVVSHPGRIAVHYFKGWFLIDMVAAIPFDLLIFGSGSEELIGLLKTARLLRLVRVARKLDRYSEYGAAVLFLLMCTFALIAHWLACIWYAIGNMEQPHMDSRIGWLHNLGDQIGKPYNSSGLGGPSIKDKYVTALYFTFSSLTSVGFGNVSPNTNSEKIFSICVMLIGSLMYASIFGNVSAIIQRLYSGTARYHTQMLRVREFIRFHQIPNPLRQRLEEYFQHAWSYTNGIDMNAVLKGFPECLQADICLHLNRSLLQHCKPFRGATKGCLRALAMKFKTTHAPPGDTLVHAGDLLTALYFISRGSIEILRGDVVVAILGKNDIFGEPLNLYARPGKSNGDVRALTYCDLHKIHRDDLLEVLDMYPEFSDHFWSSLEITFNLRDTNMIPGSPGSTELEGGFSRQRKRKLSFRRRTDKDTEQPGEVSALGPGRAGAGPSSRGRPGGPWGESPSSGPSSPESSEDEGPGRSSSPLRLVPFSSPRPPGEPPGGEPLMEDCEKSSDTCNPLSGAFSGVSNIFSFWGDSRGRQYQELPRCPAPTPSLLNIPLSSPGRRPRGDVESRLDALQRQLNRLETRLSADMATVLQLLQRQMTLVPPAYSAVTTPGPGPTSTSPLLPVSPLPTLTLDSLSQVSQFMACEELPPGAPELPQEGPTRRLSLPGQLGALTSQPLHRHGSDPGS
In all, about 310,000 compounds went through this assay and about 14,000 (4.5%) showed an effect of 50% or more. Effects have a minus sign here. The full list was thinned out, with strong results kept by preference.
quantity.name: hERG current change (%, negative = inhibition) at 10uM (%)
Please give a number only; it is taken to be in %.

In the examples that follow, each entry is paired with its recorded hERG current change (%, negative = inhibition) at 10uM.
>>> reported_value("COc1ccc(N2CCN(C(c3ccc4ncccc4c3)c3nnnn3C(C)C)CC2)cc1 (centres unmarked)")
-51.7
>>> reported_value("CN(C(=O)c1ccccc1OC1CCN(S(C)(=O)=O)CC1)C1CCOC1 (centres unmarked)")
11.7
>>> reported_value("C[n+]1cn(Cc2ccc(C#N)cc2)c2ccccc21.[Cl-]")
2.75
>>> reported_value("COCCn1nnnc1C(c1ccc2ncccc2c1)N1CCN(c2ccccc2F)CC1 (centres unmarked)")
-19.4
>>> reported_value("CC(C)(C)n1nnnc1C(c1cccnc1)N1CCN(c2cccc(C(F)(F)F)c2)CC1.Cl (centres unmarked)")
-53.3
>>> reported_value("CC(=O)c1ccc(-n2c(C)ccc2-c2ccccc2)cc1")
1
>>> reported_value("O=C(O)c1ccc(NC(=S)N2CCCCC2)cc1")
19.8
>>> reported_value("Cc1cc(C(=O)NC2CCCN(Cc3ccc(Cl)cc3)C2)n(C)n1 (centres unmarked)")
-16
>>> reported_value("COc1cccc(NC(=O)CCc2nc(-c3ccccc3F)no2)c1")
-0.885
>>> reported_value("COc1ccc(N2CCN(C(c3ccc4ncccc4c3)c3nnnn3C(C)(C)C)CC2)cc1 (centres unmarked)")
-52.1

Data request: Hello, I am looking for reported hERG current change (%, negative = inhibition) at 10uM with human ether-à-go-go-related gene (hERG) potassium channel (human, UniProt Q12809) for CC(=O)c1ccc(C(=O)NC2CCCN(Cc3ccc(Cl)cc3)C2)s1 (centres unmarked) . Could you help?
Data returned: -66.4

Data request: human ether-à-go-go-related gene (hERG) potassium channel (human, UniProt Q12809) / hERG current change (%, negative = inhibition) at 10uM / O=C(NC1CCCN(Cc2ccc(Cl)cc2)C1)C1CCC1 (centres unmarked) : value?
Data returned: -13.6

Data request: Report hERG current change (%, negative = inhibition) at 10uM for CCOC(=O)COc1coc(CN2CCN(c3ccc(F)cc3)CC2)cc1=O tested on human ether-à-go-go-related gene (hERG) potassium channel (human, UniProt Q12809).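 Also: peak tail current of the secondary pulse compared with the same well before compound.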
Data returned: -19.4

Data request: So what hERG current change (%, negative = inhibition) at 10uM did O=C(O)CCSc1nnc(SCC(=O)NCC(F)(F)F)s1 get with human ether-à-go-go-related gene (hERG) potassium channel (human, UniProt Q12809)?
Data returned: 7.55

Data request: Give human ether-à-go-go-related gene (hERG) potassium channel (human, UniProt Q12809) hERG current change (%, negative = inhibition) at 10uM for CC(C)(C)n1nnnc1C(c1ccc2ncccc2c1)N1CCSCC1 (centres unmarked)
Data returned: -18.1

Data request: Form field - read-out: hERG current change (%, negative = inhibition) at 10uM; system: human ether-à-go-go-related gene (hERG) potassium channel (human, UniProt Q12809); submitted item: CCC(C)(C)n1nnnc1C(c1ccc2ncccc2c1)N1CCN(c2ccc(O)cc2)CC1 (centres unmarked);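 also: peak tail current of the secondary pulse compared with the same well before compound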
Data returned: -31.7

Data request: Notebook: pull reported hERG current change (%, negative = inhibition) at 10uM for human ether-à-go-go-related gene (hERG) potassium channel (human, UniProt Q12809), entry CC(C)(C)n1nnnc1C(c1cccnc1)N1CCN(c2ccccc2)CC1 (centres unmarked)
Data returned: -8.19

Data request: Request: hERG current change (%, negative = inhibition) at 10uM, test system human ether-à-go-go-related gene (hERG) potassium channel (human, UniProt Q12809), entry CC(C)n1c(CN2CCN(Cc3ccccc3)CC2)nc2ccccc21;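 also: peak tail current of the secondary pulse compared with the same well before compound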
Data returned: -14.4

Data request: Tell me reported hERG current change (%, negative = inhibition) at 10uM for Cc1cc(C(=O)NC2CCCN(Cc3ccc(Cl)cc3)C2)c(C)o1 (centres unmarked) , tested with human ether-à-go-go-related gene (hERG) potassium channel (human, UniProt Q12809).
Data returned: -11.9

Data request: API: value(readout=hERG current change (%, negative = inhibition) at 10uM, system=human ether-à-go-go-related gene (hERG) potassium channel (human, UniProt Q12809)) for record CCOc1ccc(C(=O)Nc2c3c(nn2-c2ccc(F)cc2)CS(=O)C3)cc1 (centres unmarked);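 also: peak tail current of the secondary pulse compared with the same well before compound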
Data returned: -1.14
